biological target: Phosphatidylinositol 4-kinase beta (Homo sapiens) (UniProt Q9UBF8); test: Inhibition of PI4KB in human PC3 cell lysates at 10 uM using desthiobiotin-tagged ATP probe AX9989 followed by trypsinization by LC/MS analysis; settings: PC-3
Sequence (Q9UBF8 2-816 limits assumed): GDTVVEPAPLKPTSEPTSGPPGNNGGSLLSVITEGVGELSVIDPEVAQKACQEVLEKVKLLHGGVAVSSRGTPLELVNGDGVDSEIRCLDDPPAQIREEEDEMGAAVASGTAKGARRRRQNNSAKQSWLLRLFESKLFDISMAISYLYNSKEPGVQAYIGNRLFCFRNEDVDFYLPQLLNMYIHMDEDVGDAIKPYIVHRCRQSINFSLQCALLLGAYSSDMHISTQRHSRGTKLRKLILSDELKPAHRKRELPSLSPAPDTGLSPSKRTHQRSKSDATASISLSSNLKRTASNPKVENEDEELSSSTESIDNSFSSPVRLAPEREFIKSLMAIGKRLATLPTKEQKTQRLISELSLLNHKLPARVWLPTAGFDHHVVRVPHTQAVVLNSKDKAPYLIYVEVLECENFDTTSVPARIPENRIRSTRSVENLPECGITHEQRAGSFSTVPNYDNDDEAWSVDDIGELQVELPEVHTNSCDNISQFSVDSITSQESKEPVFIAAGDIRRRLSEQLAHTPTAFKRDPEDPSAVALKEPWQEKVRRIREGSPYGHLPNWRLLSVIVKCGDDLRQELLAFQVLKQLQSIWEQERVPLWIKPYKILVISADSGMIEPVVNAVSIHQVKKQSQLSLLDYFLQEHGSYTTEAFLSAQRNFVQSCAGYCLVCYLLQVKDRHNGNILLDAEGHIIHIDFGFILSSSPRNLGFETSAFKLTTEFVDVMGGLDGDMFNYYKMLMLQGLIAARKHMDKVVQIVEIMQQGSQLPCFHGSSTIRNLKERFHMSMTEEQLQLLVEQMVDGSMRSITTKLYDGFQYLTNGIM
endpoint: inhibition (%)
One number for each entry, in %.

Record excerpt, results attached:
>>> measurement("NC(=O)c1ccc2nc(N[C@H]3CC[C@H](O)CC3)c3nccn3c2c1")
94.2
>>> measurement("O=C(N[C@H](CO)c1ccccc1)c1ccc2nc(N[C@H]3CC[C@H](O)CC3)c3nccn3c2c1")
51

Here is the next item to consider.
According to the records, this molecule O=C(O)c1ccc2nc(N[C@H]3CC[C@H](O)CC3)c3nccn3c2c1 displays inhibition of 99.2

###

Exercise: for every item that follows, state its recorded inhibition.
Molecular target: Serine/threonine-protein kinase D2 (Homo sapiens) (UniProt Q9BZL6)
Sequence (whole entry): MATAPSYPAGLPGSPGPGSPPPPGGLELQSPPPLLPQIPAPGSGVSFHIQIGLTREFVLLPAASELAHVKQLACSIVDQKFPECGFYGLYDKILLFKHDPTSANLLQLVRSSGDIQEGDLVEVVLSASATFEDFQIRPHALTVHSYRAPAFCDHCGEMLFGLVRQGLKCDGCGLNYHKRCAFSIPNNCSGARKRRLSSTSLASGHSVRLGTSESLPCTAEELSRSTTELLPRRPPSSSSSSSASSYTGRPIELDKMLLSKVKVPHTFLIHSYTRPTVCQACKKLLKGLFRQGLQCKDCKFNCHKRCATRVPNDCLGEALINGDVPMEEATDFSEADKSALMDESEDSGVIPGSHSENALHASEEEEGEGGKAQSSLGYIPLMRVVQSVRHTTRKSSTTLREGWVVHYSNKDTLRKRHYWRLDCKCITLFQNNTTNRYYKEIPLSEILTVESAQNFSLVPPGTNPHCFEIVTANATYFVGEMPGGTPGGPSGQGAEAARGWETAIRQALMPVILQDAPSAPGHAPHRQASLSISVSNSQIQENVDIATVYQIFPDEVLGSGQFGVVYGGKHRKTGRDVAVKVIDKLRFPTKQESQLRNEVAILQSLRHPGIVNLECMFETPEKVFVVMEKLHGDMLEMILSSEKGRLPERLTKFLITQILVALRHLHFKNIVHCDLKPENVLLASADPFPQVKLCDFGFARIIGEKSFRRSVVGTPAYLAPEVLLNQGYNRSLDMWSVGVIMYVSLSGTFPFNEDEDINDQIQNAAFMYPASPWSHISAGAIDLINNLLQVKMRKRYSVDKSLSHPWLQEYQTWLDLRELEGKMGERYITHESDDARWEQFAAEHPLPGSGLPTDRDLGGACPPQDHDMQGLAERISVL
Assay: Inhibition of PKD2 in human PC3 cell lysates at 10 uM using desthiobiotin-tagged ATP probe AX9989 followed by trypsinization by LC/MS analysis
Conditions: PC-3

Look over these answered cases.
>>> measurement("CC[C@@H](NC(=O)c1ccc2nc(N[C@H]3CC[C@H](O)CC3)c3nccn3c2c1)c1ccccc1")
"< 35%"
>>> measurement("C[C@@H](NC(=O)c1ccc2nc(N[C@H]3CC[C@H](O)CC3)c3nccn3c2c1)c1ccccc1")
"< 35%"
>>> measurement("O=C(NC1(Cc2ccc(F)cc2)CC1)c1ccc2nc(N[C@H]3CC[C@H](O)CC3)c3nccn3c2c1")
"< 35%"
>>> measurement("NC(=O)c1ccc2nc(N[C@H]3CC[C@H](O)CC3)c3nccn3c2c1")
"51.7%"

Now for a further compound.
So for CC(C)(NC(=O)c1ccc2nc(N[C@H]3CC[C@H](O)CC3)c3nccn3c2c1)c1ccccc1 , the logged inhibition turned out to be < 35%

###

For each entry below, report its inhibition value.
molecular target: Microtubule-associated serine/threonine-protein kinase 3 (Homo sapiens, UniProt O60307); experiment: Inhibition of MAST3 in human HuH7 cell lysates at 10 uM; details: Huh-7
Sequence (O60307 whole entry): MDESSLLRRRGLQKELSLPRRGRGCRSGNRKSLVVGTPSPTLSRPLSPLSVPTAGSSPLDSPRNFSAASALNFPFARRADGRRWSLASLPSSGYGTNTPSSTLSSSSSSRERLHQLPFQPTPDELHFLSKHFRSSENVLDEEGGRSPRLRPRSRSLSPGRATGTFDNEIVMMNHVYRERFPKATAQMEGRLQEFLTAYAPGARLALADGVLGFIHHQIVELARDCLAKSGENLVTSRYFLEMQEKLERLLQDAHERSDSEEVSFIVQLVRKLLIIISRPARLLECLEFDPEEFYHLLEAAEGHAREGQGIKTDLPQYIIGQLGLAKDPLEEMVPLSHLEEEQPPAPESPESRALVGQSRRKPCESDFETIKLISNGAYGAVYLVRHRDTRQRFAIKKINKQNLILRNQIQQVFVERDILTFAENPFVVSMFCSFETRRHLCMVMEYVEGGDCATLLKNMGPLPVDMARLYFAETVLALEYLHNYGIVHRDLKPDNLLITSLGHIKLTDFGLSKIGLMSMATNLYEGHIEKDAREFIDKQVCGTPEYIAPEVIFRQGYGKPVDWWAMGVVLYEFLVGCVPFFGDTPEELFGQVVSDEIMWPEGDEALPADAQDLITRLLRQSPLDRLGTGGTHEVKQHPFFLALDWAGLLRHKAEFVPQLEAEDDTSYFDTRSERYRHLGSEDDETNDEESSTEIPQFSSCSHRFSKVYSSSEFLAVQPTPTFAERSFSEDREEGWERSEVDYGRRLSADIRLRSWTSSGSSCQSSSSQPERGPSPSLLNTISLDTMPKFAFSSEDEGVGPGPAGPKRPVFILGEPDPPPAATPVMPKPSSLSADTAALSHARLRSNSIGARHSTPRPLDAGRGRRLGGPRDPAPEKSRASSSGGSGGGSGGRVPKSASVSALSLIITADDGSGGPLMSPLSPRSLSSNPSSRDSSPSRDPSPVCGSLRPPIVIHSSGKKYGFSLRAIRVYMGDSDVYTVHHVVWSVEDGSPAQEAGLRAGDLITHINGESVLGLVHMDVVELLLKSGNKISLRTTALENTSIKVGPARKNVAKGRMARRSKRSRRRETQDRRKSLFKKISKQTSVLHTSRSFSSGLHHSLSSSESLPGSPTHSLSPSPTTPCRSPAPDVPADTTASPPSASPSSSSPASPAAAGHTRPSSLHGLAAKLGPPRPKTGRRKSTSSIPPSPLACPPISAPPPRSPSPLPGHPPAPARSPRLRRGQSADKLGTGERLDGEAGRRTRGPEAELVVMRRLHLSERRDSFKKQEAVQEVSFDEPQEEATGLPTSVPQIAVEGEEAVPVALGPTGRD
Give bare numbers, in %.

Reference set (4 entries):
>>> measurement("C[C@@H](NC(=O)c1ccc2nc(N[C@H]3CC[C@H](O)CC3)c3nccn3c2c1)c1ccccc1")
90.8
>>> measurement("CCC[C@@H](NC(=O)c1ccc2nc(N[C@H]3CC[C@H](O)CC3)c3nccn3c2c1)c1ccccc1")
80.6
>>> measurement("O=C(NC1(c2ccc(F)cc2)CC1)c1ccc2nc(N[C@H]3CC[C@H](O)CC3)c3nccn3c2c1")
93.1
>>> measurement("O=C(N[C@H](CO)c1ccccc1)c1ccc2nc(N[C@H]3CC[C@H](O)CC3)c3nccn3c2c1")
97.2

Here are 2 compounds. What values of inhibition were reported for them?
1. O=C(NC1(c2ccccc2)CC1)c1ccc2nc(N[C@H]3CC[C@H](O)CC3)c3nccn3c2c1
2. CC[C@@H](NC(=O)c1ccc2nc(N[C@H]3CC[C@H](O)CC3)c3nccn3c2c1)c1ccccc1

Result ::
97.7
87.5

###

Please provide measured inhibition for the entries that follow.
biological target: Cyclin-dependent kinase 11B (Homo sapiens); test: Inhibition of CDK11 in human PC3 cell lysates at 10 uM using desthiobiotin-tagged ATP probe AX9989 followed by trypsinization by LC/MS analysis; conditions: PC-3

>>> measurement("O=C(NC1(c2ccc(F)cc2)CC1)c1ccc2nc(N[C@H]3CC[C@H](O)CC3)c3nccn3c2c1")
"< 35%"
>>> measurement("NC(=O)c1ccc2nc(N[C@H]3CC[C@H](O)CC3)c3nccn3c2c1")
"< 35%"
>>> measurement("O=C(N[C@H](CO)c1ccccc1)c1ccc2nc(N[C@H]3CC[C@H](O)CC3)c3nccn3c2c1")
"< 35%"
>>> measurement("CC(C)(NC(=O)c1ccc2nc(N[C@H]3CC[C@H](O)CC3)c3nccn3c2c1)c1ccccc1")
"< 35%"
>>> measurement("C[C@@H](NC(=O)c1ccc2nc(N[C@H]3CC[C@H](O)CC3)c3nccn3c2c1)c1ccccc1")
"< 35%"
>>> measurement("C[C@H](NC(=O)c1ccc2nc(N[C@H]3CC[C@H](O)CC3)c3nccn3c2c1)c1ccccc1")
"< 35%"
>>> measurement("O=C(NC1(c2ccccc2)CCC1)c1ccc2nc(N[C@H]3CC[C@H](O)CC3)c3nccn3c2c1")
"< 35%"
>>> measurement("O=C(NC1(Cc2ccc(F)cc2)CC1)c1ccc2nc(N[C@H]3CC[C@H](O)CC3)c3nccn3c2c1")
"< 35%"

inhibition recorded for this molecule, CC[C@@H](NC(=O)c1ccc2nc(N[C@H]3CC[C@H](O)CC3)c3nccn3c2c1)c1ccccc1 , is < 35%

###

molecular target: Serine/threonine-protein kinase 3 (Homo sapiens) (UniProt Q13188); assay: Inhibition of MST2 in human PC3 cell lysates at 10 uM using desthiobiotin-tagged ATP probe AX9989 followed by trypsinization by LC/MS analysis; conditions: PC-3
Sequence (Q13188 whole entry): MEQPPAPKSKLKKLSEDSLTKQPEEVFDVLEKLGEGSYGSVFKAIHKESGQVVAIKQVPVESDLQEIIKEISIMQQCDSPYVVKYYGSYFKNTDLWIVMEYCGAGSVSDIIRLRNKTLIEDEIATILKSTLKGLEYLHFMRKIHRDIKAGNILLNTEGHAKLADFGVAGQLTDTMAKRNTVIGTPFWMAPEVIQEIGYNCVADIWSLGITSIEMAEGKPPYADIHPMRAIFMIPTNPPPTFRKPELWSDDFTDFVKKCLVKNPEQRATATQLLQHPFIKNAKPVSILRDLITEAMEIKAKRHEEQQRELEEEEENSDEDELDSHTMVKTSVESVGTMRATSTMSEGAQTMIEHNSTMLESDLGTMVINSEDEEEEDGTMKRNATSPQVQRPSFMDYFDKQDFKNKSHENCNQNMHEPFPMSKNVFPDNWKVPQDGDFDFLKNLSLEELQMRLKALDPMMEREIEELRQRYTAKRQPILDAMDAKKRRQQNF
endpoint: inhibition

>>> measurement("O=C(NC1(c2ccccc2)CCC1)c1ccc2nc(N[C@H]3CC[C@H](O)CC3)c3nccn3c2c1")
"< 35%"
>>> measurement("O=C(NC1(c2ccc(F)cc2)CC1)c1ccc2nc(N[C@H]3CC[C@H](O)CC3)c3nccn3c2c1")
"< 35%"
>>> measurement("C[C@H](NC(=O)c1ccc2nc(N[C@H]3CC[C@H](O)CC3)c3nccn3c2c1)c1ccccc1")
"< 35%"
>>> measurement("O=C(N[C@H](CO)c1ccccc1)c1ccc2nc(N[C@H]3CC[C@H](O)CC3)c3nccn3c2c1")
"< 35%"
>>> measurement("CC(C)(NC(=O)c1ccc2nc(N[C@H]3CC[C@H](O)CC3)c3nccn3c2c1)c1ccccc1")
"< 35%"

For each of the compounds below, state inhibition.
1. CCC[C@@H](NC(=O)c1ccc2nc(N[C@H]3CC[C@H](O)CC3)c3nccn3c2c1)c1ccccc1
2. O=C(NC1(c2ccccc2)CC1)c1ccc2nc(N[C@H]3CC[C@H](O)CC3)c3nccn3c2c1
3. O=C(O)c1ccc2nc(N[C@H]3CC[C@H](O)CC3)c3nccn3c2c1
4. O=C(NC1(Cc2ccc(F)cc2)CC1)c1ccc2nc(N[C@H]3CC[C@H](O)CC3)c3nccn3c2c1

Result ::
["< 35%", "< 35%", "< 35%", "< 35%"]

###

target: Dual specificity protein kinase CLK2 (Homo sapiens); test: Inhibition of CLK2 in human PC3 cell lysates at 10 uM using desthiobiotin-tagged ATP probe AX9989 followed by trypsinization by LC/MS analysis; settings: PC-3
Exercise: for every item that follows, state its recorded inhibition.

Example results:
>>> measurement("NC(=O)c1ccc2nc(N[C@H]3CC[C@H](O)CC3)c3nccn3c2c1")
"< 35%"
>>> measurement("O=C(O)c1ccc2nc(N[C@H]3CC[C@H](O)CC3)c3nccn3c2c1")
"< 35%"

Give inhibition for all molecules that follow.
1. O=C(NC1(Cc2ccc(F)cc2)CC1)c1ccc2nc(N[C@H]3CC[C@H](O)CC3)c3nccn3c2c1
2. O=C(NC1(c2ccc(F)cc2)CC1)c1ccc2nc(N[C@H]3CC[C@H](O)CC3)c3nccn3c2c1
3. C[C@H](NC(=O)c1ccc2nc(N[C@H]3CC[C@H](O)CC3)c3nccn3c2c1)c1ccccc1
4. C[C@@H](NC(=O)c1ccc2nc(N[C@H]3CC[C@H](O)CC3)c3nccn3c2c1)c1ccccc1
5. CCC[C@@H](NC(=O)c1ccc2nc(N[C@H]3CC[C@H](O)CC3)c3nccn3c2c1)c1ccccc1
6. CC(C)(NC(=O)c1ccc2nc(N[C@H]3CC[C@H](O)CC3)c3nccn3c2c1)c1ccccc1
7. O=C(NC1(c2ccccc2)CC1)c1ccc2nc(N[C@H]3CC[C@H](O)CC3)c3nccn3c2c1
8. O=C(N[C@H](CO)c1ccccc1)c1ccc2nc(N[C@H]3CC[C@H](O)CC3)c3nccn3c2c1

Result ::
1. < 35%
2. < 35%
3. < 35%
4. < 35%
5. < 35%
6. < 35%
7. < 35%
8. < 35%

Hey, quick one: what's inhibition for each of these?
1. O=C(NC1(c2ccccc2)CCC1)c1ccc2nc(N[C@H]3CC[C@H](O)CC3)c3nccn3c2c1
2. CC[C@@H](NC(=O)c1ccc2nc(N[C@H]3CC[C@H](O)CC3)c3nccn3c2c1)c1ccccc1

Result ::
["< 35%", "< 35%"]

All values here come from ChEMBL document CHEMBL2417377.
